This collection of values is drawn from paper PMC8388771.

System: E. faecalis ATCC 29212
Assay: Primary MIC assay, E. faecalis ATCC 29212
Assay type: cell-based, Enterococcus faecalis
Details: Enterococcus faecalis, ATCC29212; Table 1; read-out: MIC E. faecalis ATCC 29212
Each record here notes measured MIC.
PARAMETER: MIC (µg/mL)

MOLECULE: CC(C)CCc1cn(-c2ccccc2OCC(=O)N[C@H](CCCNC(=N)N)Cn2cc(Cc3ccccc3)nn2)nn1.Cl [Compound 13]
READOUT_UNIT: µg/mL
READOUT_QUALIFIER: =
OBS_VALUE: 32

MOLECULE: CC(C)CCOc1ccccc1-n1nncc1COCC(=O)N[C@H](CCCCN)C(=O)N[C@H](CCCNC(=N)N)Cn1cc(Cc2ccccc2)nn1 [Compound 50]
READOUT_UNIT: µg/mL
READOUT_QUALIFIER: >
OBS_VALUE: 32

MOLECULE: CC(C)CCc1cn(-c2c(OCC(=O)N[C@H](CCCCN)C(=O)N[C@H](CCCNC(=N)N)Cn3cc(CC4CCCCC4)nn3)ccc3ccccc23)nn1 [Compound 41]
READOUT_UNIT: µg/mL
READOUT_QUALIFIER: =
OBS_VALUE: 8
